# Test system: K4 kissing-loop RNA reporter
# assayExplanation: apparent KD of K4 kissing-loop reporter; higher = weaker reporter binding
# measurementConditions: Eterna round: R107; input ligand: arginine 13.2 mM
Record form. Attribute: apparent KD of K4 kissing-loop reporter. Fill in for each entry.
Answers are plain numbers, in nM.

Some sequences with known apparent KD of K4 kissing-loop reporter results, for comparison:
{"columns": ["sequence", "unitSpec", "apparent KD of K4 kissing-loop reporter"],
 "data": [
  ["GGUAUGGAAGCAACAUCACAAGCCGUACCACGAGGACCGGUACGGCCGCCACUCGAUAACUUGCAGUGAUGUUGCAAGUAAGAAU [(T)''-(K)'-(T)'-(T1)-(T2)-(K1)-(K2)_Design6]", "nM", 80.5],
  ["AAAUAGAUCAGUCAUCCAGUGAUGUUGGAAGGAGCGUGCGAAAGCACAGGUAGGUCGCCAAAAUAAAAGUGGCUGAUCAAAAUAA", "nM", 374],
  ["CCUAUCUCGUACGAUACCAGACUAUGAUCUUUGAUCAAUGCCAUCACCGAGUGAUGUUCGGUCCCUUGGCAGCGUAUGAGAUGGG [#12 K4 Theophylline B Exclusion]", "nM", 143],
  ["CUUAUUUCUCGCUAUGAUGUUAGUUGAGCCAAGGAUAUUAAUGAAUUAAGAAGGUGGGUUUUUAAGUGAUGUUUUGAGACUGGCA [theeternabot_exclusion_KL_FMN_A_27]", "nM", 718],
  ["CCGCCGGUCGGAAGGAGCGCACGCCAGAGUGAUGUUCUGGCGCAGGCAUUUAGUGCCCGCGUGCAGGUAGGUCGCCGAUUCUGGC [Arlaaa]", "nM", 310],
  ["GCGCGUCAUGUCAGCGGUGACUUUGUCGAUACCAGCGCCGCAAGGCGCCCUUGGCAGCGACGCGCUGGAGUGAUGUUCCAGCGUG [#2 Exclusion - Theophylline A Attempt #12 (HarryS)]", "nM", 126]
]}

// input: 6 sequences below; output: apparent KD of K4 kissing-loop reporter for each
1. UGACGUUUGGGAAGGAGCGGAAUGUAAUACGGAACGCGUGGAGAUGCAGUGAUGUUGCAGAUCCAGGUAGGUCGCCCAAGGGACG [Zainat]
2. UAUGUCAUUCUCGACGGAGUGAUGUUCCGACGAGGACCGGUACGGCCGCCACUCGGCAGAAUUGAGUCUGUGAUCCUAGAUCAAU [theeternabot_exclusion_KL_Trp_A_44]
3. UACUGGGCGAGUGAUGUUUGCUCAUGUGAUACCAGUGCCAUCCAACACCCUUGGCAGCAUGCGGGCAGUGAUGUUGUCCAUGGAA [Exclusion Theophylline A GF10]
4. GUUCUCGAAACUCAGUGAUGUUGAGUUGCAGAGGAUAUCCGCACAUGGAGAAGGCUGCAGUAAUUUAAAGACUCAGCGGCGCUCC [Riare]
5. UGUCUUUUUUUGAUGUUUUUUGUAUAAUGGCAGGAUAUCGUAGAGGCGAGAAGGGCUUUUAUGCGUUAUGAGUGAUGUUUGUAGG [vevvmullin]
6. CCCUCACGAGUGAUGUUCGUAGGGUACAGUCAGGAUAUCAUGCGGUUGAGAAGGGACAGAGAAGGCGGCGACGGGUUGCUUAUCU [Atenus]

1. 72
2. 99.3
3. 597
4. 117
5. 240
6. 243

----------
# Tested on: K4 kissing-loop RNA reporter;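 also: bound reporter read as fluorescence of individual clusters on recovered sequencing chips by microscopy, with normalized cluster intensities fitted with a binding model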
# assayExplanation: apparent KD of K4 kissing-loop reporter; higher = weaker reporter binding
# measurementConditions: Eterna round: R107; input ligand: arginine 13.2 mM
Note that class boundaries on apparent KD of K4 kissing-loop reporter are low-valued: < 100 nM; mid-valued: ≥ 100 nM and < 200 nM; high-valued: ≥ 200 nM

The following sequences have reported results that may help.
{"columns": ["sequence", "qualitativeLabel"],
 "data": [
  ["UGAUAGGACAGAAGGAGCGGAAGUGAUGUUUCCAAUGGAUAAAAGGUGUCAAAGACACCCUUCCAGGUAGGUCGCUGUCCUAUCU [ArgBX 17 #Palindromic #SwitchBubble #StaticStem]", "mid-valued"],
  ["UGUACCGAGUCAGGAUAUCAUAAUAAUCGAGUGAUGUUCGAAUAACGACUGACAAAGUCGGUCGAUUGAGAAGGGACUUGGUACU [FmnBS 7 #SwitchBubble #StaticStem]", "high-valued"],
  ["AGAACUGUCUGAGAUACCAGCUAAGGAGUGAUGUUCCGGCUCGACGAAACGUCGAGCCAUAGCCCUUGGCAGCUCAGACAGUUCA [#27 K4 Theophylline B Same State]", "mid-valued"],
  ["AGUAGAGCAUCAGAUACCAGACUGAACUGAUGGUAAGGAGUGAUGUUCCUUAAUCAGCUAGUCCCUUGGCAGCUGAUAAUAGUCA [Theo B SS t3]", "high-valued"]
]}

# bin label for UGAUACCAGACGGCCGCCACUAGGACCGGGAGUGAUGUUCCAAAAUUAAAAUACUCGGCCGCCACUAGGACCGGGUCUGGUAUCU [TrypBX 25 #DoubleAptamer #SwitchBubble] mid-valued

# bin label for CCAUCGCUAUUCGAUACCAGCCAGGAGGUCUUUGGCCUCCUAUUGGAGUGAUGUUCCAUAGGCCCUUGGCAGCGAAUAGUGAUGG [Theophylline B K4 16] mid-valued

# bin label for UUAGUCUAGAGAAGGAGCGAGUGAUGUUUGCUAAGAUCUAUGAUAUCAUAGAUCAAAUUUACUCAGGUAGGUCGCUCUAGACAUU [AK4 Exc Arginine B] low-valued

# bin label for GAAUAAUAACAUGAGUGAUGUUCAUGUAAACGAGGACCGGUACGGCCGCCACUCGUUUCUCAUGUAAGCCGUACCAAUAACAAUA [KL-XTryp-A5 #analogue] mid-valued

# bin label for AAAUAUUCGAGUGAUGUUCGAUAAAUUUCAGAGGAUAUGCUUAAAAGCAGAAGGCUGUAUUUCUAUUUGUUAUGAAAUUUUAUAA [JR_ExcFMNA_Sub003] mid-valued

# bin label for AGUGAUAUAUGAGGAUAUGGGUUUGUUAAUGAGUUUGUUUUAGUGUUGUUUGGUUAGUGAUGUUAUUUAGAAGGCGUGAGUGAUG [vxxexmullin] low-valued

# bin label for AGAACUGUCUUGGAUACCAGUGAUGUUGGUAUCGAUGUGUGAGUGCAAAGCGUCCCACAUCGCCCUUGGCAGCUAAGACUGUUCA [Omei KL Theo B Exc A v4] high-valued

----------
# System: MS2 coat protein
# assayExplanation: apparent KD of MS2 coat protein; designed switch direction (-1 OFF switch, 1 ON switch): -1; higher = weaker reporter binding
# measurementConditions: Eterna round: R95; input ligand: microRNA oligo, concentration not stated
valueKind: apparent KD of MS2 coat protein (µM)
Numbers only, in µM.

{"columns": ["sequence", "unitSpec", "assayValue"],
 "data": [
  ["CUGAGCUGAGGAUAUACAUGAGGAUCACCCAUGUGUUCGAGCUUGCGUACAGGCAGAUGUAGAAGGCAGUUCGG [JL-ex3-3.34 Brourd mod] (puzzle: Exclusion 3)", "µM", 0.0238],
  ["GCCUGUGAAGGAUAUACAUGAGGAUCACCCAUGUGGCGGGCAUACCCGCCGAGACCGUGUAGAAGGUCAUAGUA [Telamais] (puzzle: Exclusion 3)", "µM", 0.0499],
  ["AAAGAGCGAGGAUAUACGUAUCGGUGCGGCCCGCCGAUGUGACAUGAGGAUCACCCAUGUAGAAGGCGCAGAAA [Excls2-X] (puzzle: Exclusion 2)", "µM", 0.0213]
]}

// input: 2 sequences below; output: apparent KD of MS2 coat protein for each
1. CUUCGACAUGAGGAUCACCCAUGUCAGGAUAUUGUGUAUCGGGUUUUUUACGGUAAGGCAAGAAGGGAUGUGUG [LRO-Excl1-08] (puzzle: Exclusion 1)
2. GCAGGAUAAGUCAGGAUAUACCUAUGGAUACAUAGGUAGAAGGGACAUGAGGAUCACCCAUGUGACUCACCUGC [Fiskers BMX 4 - 62] (puzzle: Brourd's mod of Exclusion 4)

[0.0299, 0.0278]

----------
# Tested on: MS2 coat protein
# assayExplanation: apparent KD of MS2 coat protein; designed switch direction (-1 OFF switch, 1 ON switch): -1; higher = weaker reporter binding
# measurementConditions: input ligand: microRNA oligo, concentration not stated
valueKind: apparent KD of MS2 coat protein (nM)
Numbers only, in nM.

Some sequences with known apparent KD of MS2 coat protein results, for comparison:
{"columns": ["sequence", "apparent KD of MS2 coat protein (nM)"],
 "data": [
  ["CUGCUCCGUGUAGGAUAUGCAUACUCCCAUUAUGCAGAAGGACAUGAGGAUCACCCAUGUAUGUUAUUAUCAUGUGUUGCGUGC [Design 12] (Eterna round: R96, puzzle: Exclusion NG 1)", 30],
  ["GCACGGAGUGUAGGAUAUCUGUGCGAUUAGCUCAGAGAAGGACACAUGAGGAUCACCCAUGUGUUCCACCGAAAGGUUCCGUGC [Eli exng1 - 048] (Eterna round: R96, puzzle: Exclusion NG 1)", 8.4],
  ["UCUCGAAGGCAAGGAUAUCCUACAUUGUUCUGGCCCGGGCAUGCUACAUGAGGAUCACCCAUGUGGGAGAAGGUGCGCCACGGC [Design 29] (Eterna round: R96, puzzle: Exclusion NG 2)", 32.9],
  ["AGCUGUGGCCGAGGAUAUACACAUGAGGAUCACCCAUGUAGGCGCGGAUACGCGCUAAAAUAAGUGUAGAAGGCGGUCUCAGCA [Eli eng2 - 056] (Eterna round: R96, puzzle: Exclusion NG 2)", 17.4]
]}

Quick one: apparent KD of MS2 coat protein of CUGUUUUUCGCAGGAUAUGCUCCUCCAUUAUUUGCAGAAGGGCGUUGAACAUGAGGAUCACCCAUGUAUGGUAAUGACUAUUGC [JR_ExcNG1_Sub067] (Eterna round: R96, puzzle: Exclusion NG 1) ? 14.7
